# target_or_test_system: α-glucosidase (Saccharomyces cerevisiae)
# Construct: purchased Shanghai Yuanye Biotechnology Co., Shanghai, China Lot No. M23HS178879 (catalogue number not given)
# assay_text: CD spectroscopy, secondary structure of α-glucosidase (BeStSel)
# stated_conditions: molar ratio compound:α-glucosidase 10:1, α-glucosidase 4 μM; free enzyme 14.4
Consider the following molecules and their measured α-helix readings.

O=C1C[C@@H](c2ccc(O)cc2)Oc2cc(O)cc(O)c21 [C5, naringenin] :: 13.2%

Q: α-helix for O=C1c2ccc(O)cc2OCC1c1ccc(O)cc1 (stereo not shown) [C28, dihydrodaidzein] ?
A: 9.30%

Q: Looking for the measured α-helix of COc1ccc2c(c1OC)OC1c3ccc(O[C@@H]4O[C@H](CO)[C@@H](O)[C@H](O)[C@H]4O)cc3OCC21 (stereo partly shown) [C19, astrapterocarpan-3-O-glucoside] , can you help?
A: 22.6%

Q: Which measured α-helix value corresponds to O=c1c(O)c(-c2ccc(O)c(O)c2)oc2cc(O)cc(O)c12 [C1, quercetin] ?
A: 14.0%

* * *

random coil reference
# target_or_test_system: α-glucosidase (Saccharomyces cerevisiae, UniProt P53341)
# Construct: purchased Shanghai Yuanye Biotechnology Co., Shanghai, China Lot No. M23HS178879 (catalogue number not given)
# Sequence (P53341 whole entry): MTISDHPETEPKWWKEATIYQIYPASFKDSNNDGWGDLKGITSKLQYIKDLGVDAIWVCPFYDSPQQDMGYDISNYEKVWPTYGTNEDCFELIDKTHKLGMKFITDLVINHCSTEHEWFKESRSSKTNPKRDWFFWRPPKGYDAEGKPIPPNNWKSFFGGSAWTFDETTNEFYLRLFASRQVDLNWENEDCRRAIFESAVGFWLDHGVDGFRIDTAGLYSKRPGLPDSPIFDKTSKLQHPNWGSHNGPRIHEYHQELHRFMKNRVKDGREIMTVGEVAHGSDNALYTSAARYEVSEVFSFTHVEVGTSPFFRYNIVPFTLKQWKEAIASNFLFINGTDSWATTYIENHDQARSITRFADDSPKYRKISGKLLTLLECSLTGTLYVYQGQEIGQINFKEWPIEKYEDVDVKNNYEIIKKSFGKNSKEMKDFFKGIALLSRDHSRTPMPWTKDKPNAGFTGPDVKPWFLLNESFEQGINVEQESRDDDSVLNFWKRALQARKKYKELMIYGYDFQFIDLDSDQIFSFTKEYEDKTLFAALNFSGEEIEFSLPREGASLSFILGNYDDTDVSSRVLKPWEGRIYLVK
# assay_text: CD spectroscopy, secondary structure of α-glucosidase (BeStSel)
# stated_conditions: molar ratio 40:1, α-glucosidase 4 μM; free enzyme 45.2
# Method: CD spectra in the far-UV region (190–250 nm) were scanned by using a CD spectrometer (JASCO-1.5 Tokyo, Japan). […] The slit width was set to 1 nm, and the baseline was calibrated with PBS (phosphate buffered saline). CD spectra were averaged over three scans under a constant nitrogen flow, with the buffer signal subtracted. The results were analyzed using the BeStSel database (https://bestsel.elte.hu/index.php, accessed on 16 May 2025).
# value in %; strip the unit string

Q: May I ask what random coil has been recorded for COc1ccc2c(c1OC)OC1c3ccc(O[C@@H]4O[C@H](CO)[C@@H](O)[C@H](O)[C@H]4O)cc3OCC21 (some centres unmarked) [C19, astrapterocarpan-3-O-glucoside] ?
A: 39.9

Q: Suppose we examine the compound `C[C@@H]1O[C@@H](OC[C@H]2O[C@@H](Oc3c(-c4ccc(O)c(O)c4)oc4cc(O)cc(O)c4c3=O)[C@H](O)[C@@H](O)[C@@H]2O)[C@H](O)[C@H](O)[C@H]1O` ; what random coil value has been reported?
A: 58.8

Q: Bench note: what random coil did `O=c1c(O)c(-c2ccc(O)cc2)oc2cc(O)cc(O)c12` show?
A: 53.1

Q: So what does the record say about random coil for `O=c1c(O[C@@H]2O[C@H](CO)[C@@H](O)[C@H](O)[C@H]2O)c(-c2ccc(O)c(O)c2)oc2cc(O)cc(O)c12` ?
A: 57.8

Q: Any idea what its random coil is? The compound is COc1ccc(C2COc3cc(O)ccc3C2)c(O)c1OC (centres unmarked)
A: 37.8

Q: Could you tell me which random coil is on file for `O=c1c(-c2ccc(O)cc2)coc2cc(O)ccc12` ?
A: 45.5

Q: Recorded random coil of O=C1c2ccc(O)cc2OCC1c1ccc(O)cc1 (centres unmarked) [C28, dihydrodaidzein] , please.
A: 55.5

Q: I would be grateful if you could share the reported random coil for COc1cc(-c2oc3cc(O)cc(O)c3c(=O)c2OC2OC(CO)C(O)C(O)C2O)ccc1O (centres unmarked) [C14, isorhamnetin-3-O-glucoside] .
A: 56.6

Q: Would you kindly share the measured random coil for `O=C(/C=C/c1ccc(O)cc1)c1ccc(O)cc1O` ?
A: 49.7

Q: Return reported random coil; argument: `O=C1C[C@@H](c2ccc(O)cc2)Oc2cc(O)cc(O)c21`
A: 46.5

Q: # random coil lookup, item `O=c1c(O)c(-c2ccc(O)c(O)c2)oc2cc(O)cc(O)c12`
A: 48.5

Q: Which random coil is listed for `Oc1ccc([C@H]2COc3cc(O)ccc3C2)cc1` ?
A: 55.0

Q: Return reported random coil; argument: `O=C1C[C@@H](c2ccc(O)cc2)Oc2cc(O)ccc21`
A: 59.2

Q: Sample COc1ccc(-c2coc3cc(O[C@@H]4O[C@H](CO)[C@@H](O)[C@H](O)[C@H]4O)ccc3c2=O)cc1O [C16, calycosin-7-O-glucoside] — what was its random coil?
A: 48.6

* * *

# target_or_test_system: α-glucosidase (Saccharomyces cerevisiae)
# Construct: purchased Shanghai Yuanye Biotechnology Co., Shanghai, China Lot No. M23HS178879 (catalogue number not given)
# assay_text: CD spectroscopy, secondary structure of α-glucosidase (BeStSel)
# stated_conditions: molar ratio 10:1, α-glucosidase 4 μM; free enzyme 28.8
# β-sheet per entry
All answers are understood in %, so give the number only.

Look over these answered cases.
O=c1c(O)c(-c2ccc(O)cc2)oc2cc(O)cc(O)c12 :: 25.3
Oc1ccc([C@H]2COc3cc(O)ccc3C2)cc1 :: 23.5
O=c1c(-c2ccc(O)cc2)coc2cc(O)ccc12 :: 28.8

Q: Would you mind telling me what β-sheet value was observed for COc1ccc(C2COc3cc(O)ccc3C2)c(O)c1OC (centres unmarked) ?
A: 24.3

Q: Need β-sheet of COc1cc(-c2oc3cc(O)cc(O)c3c(=O)c2OC2OC(CO)C(O)C(O)C2O)ccc1O (centres unmarked) [C14, isorhamnetin-3-O-glucoside] , thanks.
A: 33.7

Q: Reported β-sheet for `O=C1C[C@@H](c2ccc(O)cc2)Oc2cc(O)ccc21` : what is it?
A: 18.0

Q: Please give the measured β-sheet for this molecule: COc1ccc(-c2coc3cc(O[C@@H]4O[C@H](CO)[C@@H](O)[C@H](O)[C@H]4O)ccc3c2=O)cc1O [C16, calycosin-7-O-glucoside]
A: 29.5

* * *

Examples of molecules with documented Rate of blood glucose reduction follow.
# Tested on: normal C57BL/6J mice
# assay_text: Oral sucrose test, postprandial blood glucose
# Type: in vivo
# stated_conditions: 25 mg/kg oral, vs model group, 30 min after sucrose
Quick note: give the figure in %, leave out the unit.

Past entries and their recorded results:
O=C1C[C@@H](c2ccc(O)cc2)Oc2cc(O)cc(O)c21 :: 14.33
COc1ccc(-c2coc3cc(O[C@@H]4O[C@H](CO)[C@@H](O)[C@H](O)[C@H]4O)ccc3c2=O)cc1O [C16, calycosin-7-O-glucoside] :: 11.17
O=c1c(O[C@@H]2O[C@H](CO)[C@@H](O)[C@H](O)[C@H]2O)c(-c2ccc(O)c(O)c2)oc2cc(O)cc(O)c12 :: 9.15

Q: Query: Rate of blood glucose reduction; subject: `O=c1c(-c2ccc(O)cc2)coc2cc(O)cc(O)c12`
A: 4.55

* * *

Listing: random coil of selected compounds
# target_or_test_system: α-glucosidase (Saccharomyces cerevisiae)
# Construct: purchased Shanghai Yuanye Biotechnology Co., Shanghai, China Lot No. M23HS178879 (catalogue number not given)
# assay_text: CD spectroscopy, secondary structure of α-glucosidase (BeStSel)
# stated_conditions: molar ratio 10:1, α-glucosidase 4 μM; free enzyme 45.2
Reply numerically in %, unit not repeated.

Take a look at these entries with their results.
O=C(/C=C/c1ccc(O)cc1)c1ccc(O)cc1O :: 42.3
Oc1ccc([C@H]2COc3cc(O)ccc3C2)cc1 :: 51.1
COc1cc(-c2oc3cc(O)cc(O)c3c(=O)c2OC2OC(CO)C(O)C(O)C2O)ccc1O (centres unmarked) [C14, isorhamnetin-3-O-glucoside] :: 40.4
C[C@@H]1O[C@@H](OC[C@H]2O[C@@H](Oc3c(-c4ccc(O)c(O)c4)oc4cc(O)cc(O)c4c3=O)[C@H](O)[C@@H](O)[C@@H]2O)[C@H](O)[C@H](O)[C@H]1O :: 45.5
COc1ccc(-c2coc3cc(O[C@@H]4O[C@H](CO)[C@@H](O)[C@H](O)[C@H]4O)ccc3c2=O)cc1O [C16, calycosin-7-O-glucoside] :: 45.6
O=c1c(-c2ccc(O)cc2)coc2cc(O)ccc12 :: 40.8
O=C1C[C@@H](c2ccc(O)cc2)Oc2cc(O)ccc21 :: 56.1
O=C1C[C@@H](c2ccc(O)cc2)Oc2cc(O)cc(O)c21 :: 53.3
COc1ccc(C2COc3cc(O)ccc3C2)c(O)c1OC (centres unmarked) :: 49.4
O=c1c(O[C@@H]2O[C@H](CO)[C@@H](O)[C@H](O)[C@H]2O)c(-c2ccc(O)c(O)c2)oc2cc(O)cc(O)c12 :: 49.3

Q: Please look up its random coil: `O=c1c(O)c(-c2ccc(O)cc2)oc2cc(O)cc(O)c12`
A: 48.2

Q: Suppose we examine the compound O=C1c2ccc(O)cc2OCC1c1ccc(O)cc1 (centres unmarked) [C28, dihydrodaidzein] ; what random coil value has been reported?
A: 50.7

Q: Sample COc1ccc2c(c1OC)OC1c3ccc(O[C@@H]4O[C@H](CO)[C@@H](O)[C@H](O)[C@H]4O)cc3OCC21 (some centres unmarked) [C19, astrapterocarpan-3-O-glucoside] — what was its random coil?
A: 39.9

Q: Sample `O=c1c(O)c(-c2ccc(O)c(O)c2)oc2cc(O)cc(O)c12` — what was its random coil?
A: 49.1

Cited source: paper PMC12114633
